Listed here: items and their measured Bliss excess.
# Tested on: Daoy (Other Solid Carcinomas);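 also: after 72 h of two-drug dosing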
# assayInfo: Bliss excess, mean over the matrix (fraction); higher = more synergy

Completed entries (count: 2):
[
  {
    "molecule": "CN(C)CCCOc1ccc(-c2ccc3ncc4c(c3c2)n(C2CCOCC2)c(=O)n4C)cn1 [AZD0156] + C[C@@H]1COCCN1C2=NC(=NC(=C2)C3(CC3)[S@](=N)(=O)C)C4=C5C=CNC5=NC=C4 [AZD6738] (first compound max 1 µM, 7x7, partner max 10 µM)",
    "experimentalSystem": "Daoy (Other Solid Carcinomas)",
    "Bliss excess": 0.0287
  },
  {
    "molecule": "CCN(CCO)CCCOc1ccc2c(Nc3cc(CC(=O)Nc4cccc(F)c4)[nH]n3)ncnc2c1 [AZD2811] + C=CCn1c(=O)c2cnc(Nc3ccc(N4CCN(C)CC4)cc3)nc2n1-c1cccc(C(C)(C)O)n1 [AZD1775] (first compound max 1 µM, partner max 1 µM)",
    "experimentalSystem": "Daoy (Other Solid Carcinomas)",
    "Bliss excess": 0.026
  }
]

We next turn to a different molecule, shown below.
# lookup: Cc1c2c(nn1C)CSCc1cc(n(C)n1)CSc1cc(c3ccccc3c1)OCCCc1c(C(=O)O)n(C)c3c-2c(Cl)ccc13 [AZD5991] + C[C@@H]1COCCN1C2=NC(=NC(=C2)C3(CC3)[S@](=N)(=O)C)C4=C5C=CNC5=NC=C4 [AZD6738] (first compound max 1 µM, 7x7, partner max 10 µM) on Daoy (Other Solid Carcinomas), Bliss excess = 0.0268
